Tested on: K562
Assay: Cytotoxicity against human K562 cells assessed as inhibition of cell viability at 25 ug/ml after 72 hrs by MTT assay relative to control
Format: functional
Conditions: K562, 72 h
Assign inhibition at 25 µg/mL to each entry below.
Write the number in % without appending the unit.

The reported inhibition at 25 µg/mL value, K562, for Cn1c(-c2ccc(Cl)cc2Cl)cs/c1=N/N=C/c1ccc(C(F)(F)F)cc1 reads 69.7

Noted inhibition at 25 µg/mL for FC(F)(F)c1ccc(/C=N/NC(=S)Nc2ccccc2)cc1 , tested on K562: 71.2

Entry Cc1ccc(-c2csc(N/N=C/c3ccc(C(F)(F)F)cc3)n2)cc1 under K562 had inhibition at 25 µg/mL of 20.9

K562 data for O=[N+]([O-])c1ccc(-c2csc(N/N=C/c3ccc(C(F)(F)F)cc3)n2)cc1 ; its inhibition at 25 µg/mL: 87.2

The reported K562 inhibition at 25 µg/mL of FC(F)(F)c1ccc(/C=N/N=c2/scc(-c3ccc(Cl)cc3)n2-c2ccccc2)cc1 is 59

The molecule CNC(=S)N/N=C/c1ccc(C(F)(F)F)cc1 , when measured on K562, yielded inhibition at 25 µg/mL of 82.6

Fill in: K562 inhibition at 25 µg/mL for Cn1c(-c2ccc([N+](=O)[O-])cc2)cs/c1=N/N=C/c1ccc(C(F)(F)F)cc1 = 59.8

# value of inhibition at 25 µg/mL, K562, item O=[N+]([O-])c1cccc(-c2csc(N/N=C/c3ccc(C(F)(F)F)cc3)n2)c1 = 75.5

N=C(S)N/N=C/c1ccc(C(F)(F)F)cc1 on K562 gives inhibition at 25 µg/mL = 87.2

Hey, K562 data for FC(F)(F)c1ccc(/C=N/Nc2nc(-c3ccc(Cl)cc3Cl)cs2)cc1 : inhibition at 25 µg/mL came out at 88.9
